tested.system: gamma secretase (Homo sapiens, UniProt P49768)
Construct: HEK293 cells stably expressing full length Amyloid Precursor Protein (APP); endogenous in cells
assay.info: GSM cell-based assay: Aβ 42 inhibition or reduction in HEK 293 cells over-expressing APP (sandwich ELISA)
measurement.setup: approximate IC50; HEK293 cells stably expressing full length APP, 24 hours incubation, 10-point dose response starting at 10 μM
value.kind: IC50 (nM)
Could you give me the number in nM? Just the number is fine.

>  <molecule>
Cc1cc(-c2ccc(NC(=O)C(C)c3cccc(-c4ccc(N(C)C)cc4)c3)cc2)ccn1 (stereo not drawn)

>  <value.reported>
116

$$$$
>  <molecule>
Cc1cc(-c2ccc(NC(=O)C(C)c3ccc(NC(C)C)cc3)cc2)ccn1 (stereo not drawn)

>  <value.reported>
302

$$$$
>  <molecule>
Cc1cc(-c2ccc(NC(=O)C(C)c3ccc(N(C)C(C)C)cc3)cc2)ccn1 (stereo not drawn)

>  <value.reported>
2130

$$$$
>  <molecule>
Cc1cc(-c2ccc(NC(=O)C(c3ccccc3)C(C)C)cc2)ccn1 (stereo not drawn)

>  <value.reported>
474

$$$$
>  <molecule>
Cc1cc(-c2ccc(NC(=O)C(C)c3ccc(NCC4CC4)cc3)cc2)ccn1 (stereo not drawn)

>  <value.reported>
2480

$$$$

Now consider the entry below.
Task: Fill in the blank: the reported IC50 of `Cc1cc(-c2ccc(NC(=O)Cc3ccc4c(c3)CCO4)cc2)ccn1` is ____.
Output: 4140
